Values from paper PMC6753678

Test system: HepG2 cells
test method notes: HepG2 cytotoxicity assay
condition: read-out: HepG2 cytotoxicity assay IC50; dose response confirmation
assay endpoint: IC50 (µM)

[
  {
    "molecule": "Cc1[nH]c(C)c(-c2ccc(S(=O)(=O)c3ccc(Cl)cc3)cc2)c(=O)c1Br",
    "assay endpoint": "IC50",
    "value reported": 100
  },
  {
    "molecule": "CCOC(=O)c1c(-c2ccccc2)nc2c(sc3ccccc32)c1O",
    "assay endpoint": "IC50",
    "value reported": 100
  },
  {
    "molecule": "COc1ccc(Nc2ncc(OC)c(Nc3ccccc3C(N)=O)n2)cc1N1CCN(C)CC1.O=CO",
    "assay endpoint": "IC50",
    "value reported": 13.5
  },
  {
    "molecule": "COc1ccc(C23Oc4cc(OC)cc(OC)c4C2(O)C2(CC3c3ccccc3)SCCCS2)cc1 (stereo not shown)",
    "assay endpoint": "IC50",
    "value reported": 100
  },
  {
    "molecule": "CCCN1CCN(CCCCNc2c3ccccc3nc3ccccc23)CC1.Cl",
    "assay endpoint": "IC50",
    "value reported": 5.37
  },
  {
    "molecule": "CC(Oc1ccc(NC(=O)c2cccs2)cc1)C(=O)c1ccc(Cl)cc1 (stereo not shown)",
    "assay endpoint": "IC50",
    "value reported": 100
  },
  {
    "molecule": "Cc1sc2ncnc(Sc3nc4ccccc4[nH]3)c2c1C",
    "assay endpoint": "IC50",
    "value reported": 100
  },
  {
    "molecule": "CCC1=C[C@@H]2CN(C1)Cc1c([nH]c3ccccc13)[C@@](C(=O)OC)(c1cc3c(cc1OC)N(C)[C@H]1[C@@](O)(C(=O)OC)[C@H](O)[C@]4(CC)C=CCN5CC[C@]31[C@@H]54)C2.O=S(=O)(O)O",
    "assay endpoint": "IC50",
    "value reported": 41.2
  },
  {
    "molecule": "Cc1[nH]c2ccccc2c1C(=O)C(C)Sc1n[nH]c(-c2ccccc2Br)n1 (stereo not shown)",
    "assay endpoint": "IC50",
    "value reported": 100
  },
  {
    "molecule": "O=c1cc(NCCCN(Cc2ccccc2)Cc2ccccc2)[nH]c2ccccc12",
    "assay endpoint": "IC50",
    "value reported": 33.9
  },
  {
    "molecule": "Cc1ccc(Nc2nc3cc(N(C)c4ccnc(Nc5cccc(CCS(C)(=O)=O)c5)n4)ccc3n2C)cc1.O=C(O)C(F)(F)F",
    "assay endpoint": "IC50",
    "value reported": 3.31
  },
  {
    "molecule": "Br.CC1(C)NC(N)=NC(=N)N1OCCCOc1cccc(Cl)c1",
    "assay endpoint": "IC50",
    "value reported": 0.001
  },
  {
    "molecule": "CCOCn1c(-c2ccccc2)cc2c3c(N)nc(N)nc3ccc21",
    "assay endpoint": "IC50",
    "value reported": 4.79
  },
  {
    "molecule": "COc1cc(F)c2ncc(C#N)c(CCN3CCC(NCc4ccc5c(c4)OCCO5)CC3)c2c1.Cl",
    "assay endpoint": "IC50",
    "value reported": 38.9
  },
  {
    "molecule": "Cc1cc(NC(c2ccc(Cl)cc2)c2ccc3cccnc3c2O)no1 (stereo not shown)",
    "assay endpoint": "IC50",
    "value reported": 1.38
  },
  {
    "molecule": "N#Cc1ccc(Cn2ccc3c4c(N)nc(N)nc4ccc32)cc1",
    "assay endpoint": "IC50",
    "value reported": 0.0017
  }
]
